Origin of values: paper PMC2824925

test: Plasma pharmacokinetics of repeat-dose intravenous micafungin in young infants; type: in vivo, human; conditions: human, plasma, iv, 7 mg/kg/day, CLss, median (range), 7 mg/kg/day, IV, day 4, infants ≥ 1,000 g, n=6; dose/AUC0–24
*1 amine or outer side, *2 acyl side, *3 side chain or, on linkers, in order; H or OH if unused. Where a SMILES comes first, the peptide text is derived from it. Bridges are numbered along the chain shown (N, C = ends). [ ]: non-standard residue; d: D form. The star is where a group is joined. hTyr(3S-OH,4S-OH,3'-OSO3H) = N[C@H](C(=O)O)[C@H](O)[C@@H](O)c1ccc(O)c(OS(=O)(=O)O)c1; Orn(4R-OH,5R-OH) = O=C([C@H](C[C@@H](O)[C@@H](O)N[*:3])N[*:1])[*:2]; Pro(3S-OH,4S-Me) = C[C@H]1CN[C@H](C(=O)O)[C@H]1O; X1 = CCCCCOc1ccc(-c2cc(-c3ccc(C(=O)*)cc3)no2)cc1; Gln(3R-OH) = NC(=O)C[C@@H](O)[C@H](N)C(=O)O; Hyp = O=C(O)[C@@H]1C[C@@H](O)CN1
ASSAY READOUT: clearance (mL/min)
Numeric answer only, unit mL/min assumed.

Would you mind telling me what clearance value was observed for CCCCCOc1ccc(-c2cc(-c3ccc(C(=O)N[C@H]4C[C@@H](O)[C@@H](O)NC(=O)[C@@H]5[C@@H](O)[C@@H](C)CN5C(=O)[C@H]([C@H](O)CC(N)=O)NC(=O)[C@H]([C@H](O)[C@@H](O)c5ccc(O)c(OS(=O)(=O)O)c5)NC(=O)[C@@H]5C[C@@H](O)CN5C(=O)[C@H]([C@@H](C)O)NC4=O)cc3)no2)cc1 [micafungin] (X1-[Orn(4R-OH,5R-OH)]T[Hyp][hTyr(3S-OH,4S-OH,3'-OSO3H)][Gln(3R-OH)][Pro(3S-OH,4S-Me)]; lactam 1-C) ?
0.7

---

assay: Plasma pharmacokinetics of repeat-dose intravenous micafungin in young infants; assay type: in vivo, human; settings: human, plasma, iv, AUC0–24, mean (SD), overall (7 and 10 mg/kg/day groups), day 4, n=12, plasma, log-linear method; SD
*1 amine or outer side, *2 acyl side, *3 side chain or, on linkers, in order; H or OH if unused. Where a SMILES comes first, the peptide text is derived from it. Bridges are numbered along the chain shown (N, C = ends). [ ]: non-standard residue; d: D form. The star is where a group is joined. hTyr(3S-OH,4S-OH,3'-OSO3H) = N[C@H](C(=O)O)[C@H](O)[C@@H](O)c1ccc(O)c(OS(=O)(=O)O)c1; Orn(4R-OH,5R-OH) = O=C([C@H](C[C@@H](O)[C@@H](O)N[*:3])N[*:1])[*:2]; Pro(3S-OH,4S-Me) = C[C@H]1CN[C@H](C(=O)O)[C@H]1O; X1 = CCCCCOc1ccc(-c2cc(-c3ccc(C(=O)*)cc3)no2)cc1; Gln(3R-OH) = NC(=O)C[C@@H](O)[C@H](N)C(=O)O; Hyp = O=C(O)[C@@H]1C[C@@H](O)CN1
ASSAY READOUT: AUC(0-t) (µg·h/mL)
// units = µg·h/mL; emit number, no label

Sample CCCCCOc1ccc(-c2cc(-c3ccc(C(=O)N[C@H]4C[C@@H](O)[C@@H](O)NC(=O)[C@@H]5[C@@H](O)[C@@H](C)CN5C(=O)[C@H]([C@H](O)CC(N)=O)NC(=O)[C@H]([C@H](O)[C@@H](O)c5ccc(O)c(OS(=O)(=O)O)c5)NC(=O)[C@@H]5C[C@@H](O)CN5C(=O)[C@H]([C@@H](C)O)NC4=O)cc3)no2)cc1 [micafungin] (X1-[Orn(4R-OH,5R-OH)]T[Hyp][hTyr(3S-OH,4S-OH,3'-OSO3H)][Gln(3R-OH)][Pro(3S-OH,4S-Me)]; lactam 1-C) — what was its AUC(0-t)?
308

---

assay: Plasma pharmacokinetics of repeat-dose intravenous micafungin in young infants; format: in vivo, human; conditions: human, plasma, iv, Tmax, mean (SD), overall (7 and 10 mg/kg/day groups), day 4, n=12; SD
*1 amine or outer side, *2 acyl side, *3 side chain or, on linkers, in order; H or OH if unused. Where a SMILES comes first, the peptide text is derived from it. Bridges are numbered along the chain shown (N, C = ends). [ ]: non-standard residue; d: D form. The star is where a group is joined. hTyr(3S-OH,4S-OH,3'-OSO3H) = N[C@H](C(=O)O)[C@H](O)[C@@H](O)c1ccc(O)c(OS(=O)(=O)O)c1; Orn(4R-OH,5R-OH) = O=C([C@H](C[C@@H](O)[C@@H](O)N[*:3])N[*:1])[*:2]; Pro(3S-OH,4S-Me) = C[C@H]1CN[C@H](C(=O)O)[C@H]1O; X1 = CCCCCOc1ccc(-c2cc(-c3ccc(C(=O)*)cc3)no2)cc1; Gln(3R-OH) = NC(=O)C[C@@H](O)[C@H](N)C(=O)O; Hyp = O=C(O)[C@@H]1C[C@@H](O)CN1
ASSAY READOUT: Tmax (h)
Please reply with the bare figure in h and do not write the unit itself.

What value of Tmax has been recorded for this entry: CCCCCOc1ccc(-c2cc(-c3ccc(C(=O)N[C@H]4C[C@@H](O)[C@@H](O)NC(=O)[C@@H]5[C@@H](O)[C@@H](C)CN5C(=O)[C@H]([C@H](O)CC(N)=O)NC(=O)[C@H]([C@H](O)[C@@H](O)c5ccc(O)c(OS(=O)(=O)O)c5)NC(=O)[C@@H]5C[C@@H](O)CN5C(=O)[C@H]([C@@H](C)O)NC4=O)cc3)no2)cc1 [micafungin] (X1-[Orn(4R-OH,5R-OH)]T[Hyp][hTyr(3S-OH,4S-OH,3'-OSO3H)][Gln(3R-OH)][Pro(3S-OH,4S-Me)]; lactam 1-C)
1.2

---

experiment: Plasma pharmacokinetics of repeat-dose intravenous micafungin in young infants; format: in vivo, human; details: human, plasma, iv, Vdss/wt, mean (SD), overall (7 and 10 mg/kg/day groups), day 4, n=12; SD
*1 amine or outer side, *2 acyl side, *3 side chain or, on linkers, in order; H or OH if unused. Where a SMILES comes first, the peptide text is derived from it. Bridges are numbered along the chain shown (N, C = ends). [ ]: non-standard residue; d: D form. The star is where a group is joined. hTyr(3S-OH,4S-OH,3'-OSO3H) = N[C@H](C(=O)O)[C@H](O)[C@@H](O)c1ccc(O)c(OS(=O)(=O)O)c1; Orn(4R-OH,5R-OH) = O=C([C@H](C[C@@H](O)[C@@H](O)N[*:3])N[*:1])[*:2]; Pro(3S-OH,4S-Me) = C[C@H]1CN[C@H](C(=O)O)[C@H]1O; X1 = CCCCCOc1ccc(-c2cc(-c3ccc(C(=O)*)cc3)no2)cc1; Gln(3R-OH) = NC(=O)C[C@@H](O)[C@H](N)C(=O)O; Hyp = O=C(O)[C@@H]1C[C@@H](O)CN1
ASSAY READOUT: Vd (L/kg)
Return type: number; implicit unit L/kg.

Quick one: Vd of CCCCCOc1ccc(-c2cc(-c3ccc(C(=O)N[C@H]4C[C@@H](O)[C@@H](O)NC(=O)[C@@H]5[C@@H](O)[C@@H](C)CN5C(=O)[C@H]([C@H](O)CC(N)=O)NC(=O)[C@H]([C@H](O)[C@@H](O)c5ccc(O)c(OS(=O)(=O)O)c5)NC(=O)[C@@H]5C[C@@H](O)CN5C(=O)[C@H]([C@@H](C)O)NC4=O)cc3)no2)cc1 [micafungin] (X1-[Orn(4R-OH,5R-OH)]T[Hyp][hTyr(3S-OH,4S-OH,3'-OSO3H)][Gln(3R-OH)][Pro(3S-OH,4S-Me)]; lactam 1-C) ?
0.45
